For each of the compounds below, state its AUC(0-inf).
ASSAY_EXPLANATION: Pharmacokinetics in dogs (plasma concentration by HPLC)
Assay type: in vivo, dog (beagle)
TEST_SETTINGS: dog, plasma, po, 2 mg/kg/day, Dog 2, day 3; 2 mg/kg/day PO; read-out: AUCO- (to infinite time)
Give your result in ng·h/mL as a bare value.

[Q] Can you share its AUC(0-inf)? I mean this compound: Cc1cc(Nc2nccc(-c3ccncc3)n2)ccc1N.Cl.Cl [Compound 2, reference compound]
[A] 380

[Q] Given c1cc(Nc2nccc(-c3cccs3)n2)cc(OCCn2ccnc2)c1 , state its recorded AUC(0-inf).
[A] 477

====

ASSAY_EXPLANATION: Pharmacokinetics in dogs (plasma concentration by HPLC)
Type: in vivo, dog (beagle)
TEST_SETTINGS: dog, plasma, po, 2 mg/kg/day, Dog 3, day 3, 12 h; 2 mg/kg/day PO
EXPERIMENTAL_ENDPOINT: concentration at 12 h

[Q] Which concentration at 12 h is reported for this compound? c1cc(Nc2nccc(-c3cccs3)n2)cc(OCCn2ccnc2)c1
[A] < 30 ng/mL

====

Field: concentration at 2 h. Provide a value for each of the compounds that follow.
ASSAY_EXPLANATION: Pharmacokinetics in dogs (plasma concentration by HPLC)
Type: in vivo, dog (beagle)
TEST_SETTINGS: dog, plasma, po, 2 mg/kg/day, Dog 2, day 1, 2 h; 2 mg/kg/day PO
Remember to quote the unit after the number.

[Q] Suppose we examine the compound c1cc(Nc2nccc(-c3cccs3)n2)cc(OCCn2ccnc2)c1 ; what concentration at 2 h value has been reported?
[A] 251 ng/mL

[Q] Report concentration at 2 h for Cc1cc(Nc2nccc(-c3ccncc3)n2)ccc1N.Cl.Cl [Compound 2, reference compound] please.
[A] 58 ng/mL

====

ASSAY_EXPLANATION: Pharmacokinetics in dogs (plasma concentration by HPLC)
Format: in vivo, dog (beagle)
TEST_SETTINGS: dog, plasma, po, 2 mg/kg/day, Dog 1, day 3; 2 mg/kg/day PO
EXPERIMENTAL_ENDPOINT: half-life (h)
Dear colleague, please return just the value in h, with no unit written.

[Q] Query (compound): CCN(CC)CCOc1ccc(Nc2nccc(-c3ccncc3)n2)cc1.Cl.Cl [Compound 3, reference compound] ; field requested: half-life
[A] 1.25

[Q] Given the compound Cc1cc(Nc2nccc(-c3ccncc3)n2)ccc1N.Cl.Cl [Compound 2, reference compound] , what is its reported half-life?
[A] 0.9

====

ASSAY_EXPLANATION: Pharmacokinetics in dogs (plasma concentration by HPLC)
Assay type: in vivo, dog (beagle)
TEST_SETTINGS: dog, plasma, po, 2 mg/kg/day, one dog (Dog 1), day 5, 1.0 h; 2 mg/kg/day PO; heading: Plasma concentration
EXPERIMENTAL_ENDPOINT: concentration at 1 h (ng/mL)
Report the value in ng/mL with no unit label.

[Q] Can you share its concentration at 1 h? I mean this compound: CCN(CC)CCOc1ccc(Nc2nccc(-c3ccncc3)n2)cc1.Cl.Cl [Compound 3, reference compound]
[A] 153

====

ASSAY_EXPLANATION: Pharmacokinetics in dogs (plasma concentration by HPLC)
Assay type: in vivo, dog (beagle)
TEST_SETTINGS: dog, plasma, po, 2 mg/kg/day, one dog (Dog 1), day 1, 1.0 h; 2 mg/kg/day PO; heading: Plasma concentration
EXPERIMENTAL_ENDPOINT: concentration at 1 h (ng/mL)
Kindly answer with a numeric value in ng/mL, unit omitted.

[Q] Any idea what its concentration at 1 h is? The molecule is CCN(CC)CCOc1ccc(Nc2nccc(-c3ccncc3)n2)cc1.Cl.Cl [Compound 3, reference compound]
[A] 125
